# Species: Homo sapiens
# protocol_details: Selectivity ratio of Ki for human dopamine D2S receptor to Ki for human dopamine D3 receptor
assay_endpoint: Ratio Ki
Write no unit; give the number alone.

COc1ccccc1N1CCN(CCCCNC(=O)CC2CCCCC2)CC1    161
O=C(NCCCCN1CCN(c2cccc(C(F)(F)F)c2)CC1)c1ccc2ccccc2c1    1400
O=C(NCCCCN1CCN(c2ccccc2O)CC1)c1ccc2ccccc2c1    400
O=C(NCCCCN1CCN(c2cccc3[nH]ccc23)CC1)c1ccc2ccccc2c1    73

Please find the next compound below.
Which Ratio Ki is reported for this compound? "O=C(NCCCCN1CCN(c2cccc3[nH]c(=O)[nH]c23)CC1)c1ccc2ccccc2c1"
37

* * *

# target_or_test_system: Alpha-1A adrenergic receptor (Homo sapiens, UniProt P35348)
# Sequence (P35348 whole entry): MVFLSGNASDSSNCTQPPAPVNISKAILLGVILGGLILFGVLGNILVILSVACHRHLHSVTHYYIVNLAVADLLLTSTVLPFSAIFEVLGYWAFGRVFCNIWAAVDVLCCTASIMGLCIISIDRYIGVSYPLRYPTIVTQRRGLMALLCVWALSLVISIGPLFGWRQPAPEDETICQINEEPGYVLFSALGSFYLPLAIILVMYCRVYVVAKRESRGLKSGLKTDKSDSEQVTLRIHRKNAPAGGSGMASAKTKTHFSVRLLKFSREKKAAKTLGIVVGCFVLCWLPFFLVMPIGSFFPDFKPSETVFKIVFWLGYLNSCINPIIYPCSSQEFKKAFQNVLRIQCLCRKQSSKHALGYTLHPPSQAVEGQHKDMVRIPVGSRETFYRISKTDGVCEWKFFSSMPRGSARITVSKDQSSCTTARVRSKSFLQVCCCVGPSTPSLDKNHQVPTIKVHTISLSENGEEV
# protocol_details: Displacement of [3H]-prazosin from human ADRA1A receptor
Recorded pKi by entry
Please report pKi as the negative decimal logarithm of the molar concentration, giving only the number.

Past entries and their recorded results:
CS(=O)(=O)Nc1cccc(N2CCN(CCCCNC(=O)c3ccc4ccccc4c3)CC2)c1    6.80
O=C1Cc2c(cccc2N2CCN(CCCCNC(=O)c3ccc4ccccc4c3)CC2)N1    6.68
COc1ccccc1N1CCN(CCCCNC(=O)Nc2cccc(Cl)c2)CC1    8.30

Which pKi is reported for this compound? "COc1ccccc1N1CCN(CCCCNC(=O)CC(C)C)CC1"
6.38

Another compound: "CCOC(=O)Nc1cccc(N2CCN(CCCCNC(=O)c3ccc4ccccc4c3)CC2)c1"
5.99

* * *

# target_or_test_system: hERG (KCNH2) (Homo sapiens)
# Sequence (Q12809 whole entry): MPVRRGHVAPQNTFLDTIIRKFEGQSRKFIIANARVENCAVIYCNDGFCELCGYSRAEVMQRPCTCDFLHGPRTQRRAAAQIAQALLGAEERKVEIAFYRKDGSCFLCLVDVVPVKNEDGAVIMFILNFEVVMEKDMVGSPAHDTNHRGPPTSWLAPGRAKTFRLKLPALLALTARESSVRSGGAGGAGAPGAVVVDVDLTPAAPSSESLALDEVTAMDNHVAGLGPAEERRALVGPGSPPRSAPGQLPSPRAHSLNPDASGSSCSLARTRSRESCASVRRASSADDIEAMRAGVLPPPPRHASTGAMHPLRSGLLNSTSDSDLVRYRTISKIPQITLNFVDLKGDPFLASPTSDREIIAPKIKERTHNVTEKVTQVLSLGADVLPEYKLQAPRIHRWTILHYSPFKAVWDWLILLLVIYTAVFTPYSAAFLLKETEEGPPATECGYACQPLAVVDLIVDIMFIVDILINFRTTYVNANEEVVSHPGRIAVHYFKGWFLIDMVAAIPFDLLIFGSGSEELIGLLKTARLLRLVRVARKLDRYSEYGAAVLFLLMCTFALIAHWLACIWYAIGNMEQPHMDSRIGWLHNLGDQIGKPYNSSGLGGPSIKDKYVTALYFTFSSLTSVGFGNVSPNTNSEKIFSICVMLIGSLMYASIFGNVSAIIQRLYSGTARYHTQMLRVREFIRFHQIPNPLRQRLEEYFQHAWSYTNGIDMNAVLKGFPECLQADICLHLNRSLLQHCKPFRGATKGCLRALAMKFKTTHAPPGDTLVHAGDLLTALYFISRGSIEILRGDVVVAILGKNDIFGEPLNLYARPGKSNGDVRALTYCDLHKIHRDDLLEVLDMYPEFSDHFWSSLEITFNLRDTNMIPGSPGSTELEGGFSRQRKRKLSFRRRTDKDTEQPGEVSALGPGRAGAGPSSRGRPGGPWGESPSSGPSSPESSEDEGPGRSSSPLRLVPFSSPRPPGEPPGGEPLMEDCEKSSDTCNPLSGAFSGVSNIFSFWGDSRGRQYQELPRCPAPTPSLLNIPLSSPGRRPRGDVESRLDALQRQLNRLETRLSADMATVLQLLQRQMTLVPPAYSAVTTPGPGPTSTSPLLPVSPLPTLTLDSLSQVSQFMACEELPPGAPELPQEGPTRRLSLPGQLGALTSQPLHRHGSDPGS
# protocol_details: Inhibition of dofetilide binding to human ERG at 1 uM
# study_conditions: probe dofetilide
Recorded inhibition at 1 µM by entry
Value expressed in %; do not type the unit.

Which inhibition at 1 µM is reported for this compound? "O=C(NCCCCN1CCN(c2cccc(C(F)(F)F)c2)CC1)c1ccc2ccccc2c1"
51

Another compound: "COc1ccccc1N1CCN(CCCCNC(=O)C2CCCCC2)CC1"
82

Another compound: "O=C(NCCCCN1CCN(c2cccc(O)c2)CC1)c1ccc2ccccc2c1"
30

* * *

# Species on record: Homo sapiens
# protocol_details: Selectivity ratio of Ki for human dopamine D2S receptor to Ki for human dopamine D3 receptor
Recorded Ratio Ki by entry
Write no unit; give the number alone.

Past entries and their recorded results:
COc1ccccc1N1CCN(CCCCNC(=O)Nc2cccc(Cl)c2)CC1    10
O=C1Cc2c(cccc2N2CCN(CCCCNC(=O)c3ccc4ccccc4c3)CC2)N1    100
O=C(NCCCCN1CCN(c2ccccc2F)CC1)c1ccc2ccccc2c1    250
COc1ccccc1N1CCN(CCCCCOc2ccc3ccccc3c2)CC1    0.4
COc1ccccc1N1CCN(CCCCNC(=O)N2CCOCC2)CC1    270
Cc1ccccc1N1CCN(CCCCNC(=O)c2ccc3ccccc3c2)CC1    550

Which Ratio Ki is reported for this compound? "O=C(NCCCCN1CCN(c2cccc(O)c2)CC1)c1ccc2ccccc2c1"
1900

Another compound: "COc1ccccc1N1CCN(CCCCNC(=O)C2CCCCC2)CC1"
190

Another compound: "Cc1cccc(N2CCN(CCCCNC(=O)c3ccc4ccccc4c3)CC2)c1C"
230

Another compound: "COc1ccccc1N1CCN(CCCCNC(=O)N(C)c2ccccc2)CC1"
130

* * *

Each entry below carries its measured Ki, system: Alpha-1A adrenergic receptor (Homo sapiens).
Value expressed in nM; do not type the unit.

Past entries and their recorded results:
O=C(NCCCCN1CCN(c2ccccc2O)CC1)c1ccc2ccccc2c1    46.7
COc1ccccc1N1CCN(CCCCCOc2ccc3ccccc3c2)CC1    10.3
O=C(NCCCCN1CCN(c2cccc3[nH]c(=O)[nH]c23)CC1)c1ccc2ccccc2c1    158
Cc1cccc(N2CCN(CCCCNC(=O)c3ccc4ccccc4c3)CC2)c1C    230
O=C(NCCCCN1CCN(c2cccc(O)c2)CC1)c1ccc2ccccc2c1    1520

Please find the next molecule below.
Which Ki is reported for this molecule? "O=C(NCCCCN1CCN(c2cccc(Cl)c2)CC1)c1ccc2ccccc2c1"
50.2

* * *

Each entry below carries its measured log10(Ki), system: D(3) dopamine receptor (Homo sapiens).
Sequence (P35462 whole entry): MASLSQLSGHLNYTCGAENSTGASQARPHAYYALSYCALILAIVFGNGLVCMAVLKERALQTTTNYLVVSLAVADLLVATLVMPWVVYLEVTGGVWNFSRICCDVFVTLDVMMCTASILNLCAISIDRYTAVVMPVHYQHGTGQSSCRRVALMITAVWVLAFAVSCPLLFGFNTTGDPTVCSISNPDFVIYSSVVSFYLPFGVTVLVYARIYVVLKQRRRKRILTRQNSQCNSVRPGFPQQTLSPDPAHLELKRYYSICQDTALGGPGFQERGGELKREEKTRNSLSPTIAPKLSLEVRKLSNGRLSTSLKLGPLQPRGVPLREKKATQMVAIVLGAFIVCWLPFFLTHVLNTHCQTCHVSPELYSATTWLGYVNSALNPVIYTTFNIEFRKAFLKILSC
Log10 applied to Ki; unit prior to transform: nM.

O=C(NCCCCN1CCN(c2ccccc2O)CC1)c1ccc2ccccc2c1    1.10
O=C(NCCCCN1CCN(c2ccccc2Cl)CC1)c1ccc2ccccc2c1    -0.15
COc1ccccc1N1CCN(CCCCNC(=O)N2CCOCC2)CC1    0.26

API: value(readout=log10(Ki), system=D(3) dopamine receptor (Homo sapiens)) for record "COc1ccccc1N1CCN(CCCCNC(=O)CC(C)C)CC1"
2.09

Another molecule: "CCOC(=O)Nc1cccc(N2CCN(CCCCNC(=O)c3ccc4ccccc4c3)CC2)c1"
0.59

* * *

# Species on record: Homo sapiens
# protocol_details: Selectivity ratio of Ki for human ADRA1A receptor to Ki for human dopamine D3 receptor
One threshold, 20, splits the recorded Ratio Ki values: lower ones are satisfied, equal or higher ones are not satisfied.

Worked cases, answers included:
O=C(NCCCCN1CCN(c2cccc(Cl)c2)CC1)c1ccc2ccccc2c1    satisfied
O=C(NCCCCN1CCN(c2ccccc2O)CC1)c1ccc2ccccc2c1    satisfied
O=C(NCCCCN1CCN(c2cccc3[nH]c(=O)[nH]c23)CC1)c1ccc2ccccc2c1    not satisfied
O=C(NCCCCN1CCN(c2ccc(Cl)cc2)CC1)c1ccc2ccccc2c1    satisfied
COc1ccccc1N1CCN(CCCCNC(=O)CC2CCCCC2)CC1    not satisfied
O=C(NCCCCN1CCN(c2cccc3[nH]ccc23)CC1)c1ccc2ccccc2c1    satisfied
CCOC(=O)Nc1cccc(N2CCN(CCCCNC(=O)c3ccc4ccccc4c3)CC2)c1    not satisfied
CS(=O)(=O)Nc1cccc(N2CCN(CCCCNC(=O)c3ccc4ccccc4c3)CC2)c1    not satisfied

Below 20 on Ratio Ki? Entry "O=C(NCCCCN1CCN(c2ccccc2F)CC1)c1ccc2ccccc2c1"
not satisfied

Another molecule: "O=C(NCCCCN1CCN(c2cccc(O)c2)CC1)c1ccc2ccccc2c1"
not satisfied

Another molecule: "COc1ccccc1N1CCN(CCCCNC(=O)CC(C)C)CC1"
satisfied

Another molecule: "O=C1Cc2c(cccc2N2CCN(CCCCNC(=O)c3ccc4ccccc4c3)CC2)N1"
not satisfied

Another molecule: "COc1ccccc1N1CCN(CCCCNC(=O)N(C)c2ccccc2)CC1"
satisfied

Another molecule: "Cc1cccc(N2CCN(CCCCNC(=O)c3ccc4ccccc4c3)CC2)c1C"
not satisfied

Another molecule: "O=C(NCCCCN1CCN(c2cccc(C(F)(F)F)c2)CC1)c1ccc2ccccc2c1"
not satisfied

Another molecule: "O=C(NCCCCN1CCN(c2ccccc2Cl)CC1)c1ccc2ccccc2c1"
not satisfied

* * *

# Species: Homo sapiens
# protocol_details: Selectivity ratio of Ki for human dopamine D2S receptor to Ki for human dopamine D3 receptor
assay_endpoint: Ratio Ki
Write no unit; give the number alone.

Past entries and their recorded results:
CCOC(=O)Nc1cccc(N2CCN(CCCCNC(=O)c3ccc4ccccc4c3)CC2)c1    234
CS(=O)(=O)Nc1cccc(N2CCN(CCCCNC(=O)c3ccc4ccccc4c3)CC2)c1    34
O=C(NCCCCN1CCN(c2ccc(Cl)cc2)CC1)c1ccc2ccccc2c1    1170
O=C(NCCCCN1CCN(c2cccc(Cl)c2)CC1)c1ccc2ccccc2c1    700

Please find the next molecule below.
Which Ratio Ki is reported for this molecule? "O=C(NCCCCN1CCN(c2ccccc2Cl)CC1)c1ccc2ccccc2c1"
340

* * *

# target_or_test_system: D(2) dopamine receptor (Homo sapiens)
# Sequence (P14416 whole entry): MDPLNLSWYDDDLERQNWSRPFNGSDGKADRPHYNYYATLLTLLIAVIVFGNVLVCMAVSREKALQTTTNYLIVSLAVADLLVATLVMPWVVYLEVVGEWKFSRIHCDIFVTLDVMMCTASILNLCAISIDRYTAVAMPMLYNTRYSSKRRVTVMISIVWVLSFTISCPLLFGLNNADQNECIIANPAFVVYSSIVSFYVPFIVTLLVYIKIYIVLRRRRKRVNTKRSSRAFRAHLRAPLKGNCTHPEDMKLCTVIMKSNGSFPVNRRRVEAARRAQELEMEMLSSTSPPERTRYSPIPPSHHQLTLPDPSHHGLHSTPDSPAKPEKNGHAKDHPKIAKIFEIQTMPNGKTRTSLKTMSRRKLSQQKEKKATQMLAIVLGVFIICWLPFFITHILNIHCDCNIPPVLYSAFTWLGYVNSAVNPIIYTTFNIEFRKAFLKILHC
# protocol_details: Displacement of [3H]-spiperone from human dopamine D2S receptor expressed in HEK293 cell membranes
# study_conditions: read-out: Ki
pKi: −log10 of the molar value.
Categories are assigned from the measured pKi using these intervals: lo: < 6; mid: ≥ 6 and < 7; hi: ≥ 7

Worked cases, answers included:
COc1ccccc1N1CCN(CCCCNC(=O)N(C)c2ccccc2)CC1    lo
O=C1Cc2c(cccc2N2CCN(CCCCNC(=O)c3ccc4ccccc4c3)CC2)N1    hi

Consider "CS(=O)(=O)Nc1cccc(N2CCN(CCCCNC(=O)c3ccc4ccccc4c3)CC2)c1" . To which pKi class does it belong?
hi

Another compound: "COc1ccccc1N1CCN(CCCCNC(=O)N2CCOCC2)CC1"
mid

Another compound: "O=C(NCCCCN1CCN(c2cccc(C(F)(F)F)c2)CC1)c1ccc2ccccc2c1"
lo

* * *

Each entry below carries its measured Ki, system: D(3) dopamine receptor (Homo sapiens).
Value expressed in nM; do not type the unit.

Past entries and their recorded results:
O=C(NCCCCN1CCN(c2cccc(O)c2)CC1)c1ccc2ccccc2c1    0.2
COc1ccccc1N1CCN(CCCCCOc2ccc3ccccc3c2)CC1    87
O=C(NCCCCN1CCN(c2cccc3[nH]c(=O)[nH]c23)CC1)c1ccc2ccccc2c1    3.5

Please find the next compound below.
Which Ki is reported for this compound? "O=C(NCCCCN1CCN(c2ccc(Cl)cc2)CC1)c1ccc2ccccc2c1"
10.4

These data points were gathered from ChEMBL document CHEMBL3758127.
